Exercise: for every item that follows, state its recorded IC50.
Target: human α1G subunits (T-type channels) (Homo sapiens, UniProt O43497)
Construct: expressed in transfected cells
Sequence (O43497 whole entry): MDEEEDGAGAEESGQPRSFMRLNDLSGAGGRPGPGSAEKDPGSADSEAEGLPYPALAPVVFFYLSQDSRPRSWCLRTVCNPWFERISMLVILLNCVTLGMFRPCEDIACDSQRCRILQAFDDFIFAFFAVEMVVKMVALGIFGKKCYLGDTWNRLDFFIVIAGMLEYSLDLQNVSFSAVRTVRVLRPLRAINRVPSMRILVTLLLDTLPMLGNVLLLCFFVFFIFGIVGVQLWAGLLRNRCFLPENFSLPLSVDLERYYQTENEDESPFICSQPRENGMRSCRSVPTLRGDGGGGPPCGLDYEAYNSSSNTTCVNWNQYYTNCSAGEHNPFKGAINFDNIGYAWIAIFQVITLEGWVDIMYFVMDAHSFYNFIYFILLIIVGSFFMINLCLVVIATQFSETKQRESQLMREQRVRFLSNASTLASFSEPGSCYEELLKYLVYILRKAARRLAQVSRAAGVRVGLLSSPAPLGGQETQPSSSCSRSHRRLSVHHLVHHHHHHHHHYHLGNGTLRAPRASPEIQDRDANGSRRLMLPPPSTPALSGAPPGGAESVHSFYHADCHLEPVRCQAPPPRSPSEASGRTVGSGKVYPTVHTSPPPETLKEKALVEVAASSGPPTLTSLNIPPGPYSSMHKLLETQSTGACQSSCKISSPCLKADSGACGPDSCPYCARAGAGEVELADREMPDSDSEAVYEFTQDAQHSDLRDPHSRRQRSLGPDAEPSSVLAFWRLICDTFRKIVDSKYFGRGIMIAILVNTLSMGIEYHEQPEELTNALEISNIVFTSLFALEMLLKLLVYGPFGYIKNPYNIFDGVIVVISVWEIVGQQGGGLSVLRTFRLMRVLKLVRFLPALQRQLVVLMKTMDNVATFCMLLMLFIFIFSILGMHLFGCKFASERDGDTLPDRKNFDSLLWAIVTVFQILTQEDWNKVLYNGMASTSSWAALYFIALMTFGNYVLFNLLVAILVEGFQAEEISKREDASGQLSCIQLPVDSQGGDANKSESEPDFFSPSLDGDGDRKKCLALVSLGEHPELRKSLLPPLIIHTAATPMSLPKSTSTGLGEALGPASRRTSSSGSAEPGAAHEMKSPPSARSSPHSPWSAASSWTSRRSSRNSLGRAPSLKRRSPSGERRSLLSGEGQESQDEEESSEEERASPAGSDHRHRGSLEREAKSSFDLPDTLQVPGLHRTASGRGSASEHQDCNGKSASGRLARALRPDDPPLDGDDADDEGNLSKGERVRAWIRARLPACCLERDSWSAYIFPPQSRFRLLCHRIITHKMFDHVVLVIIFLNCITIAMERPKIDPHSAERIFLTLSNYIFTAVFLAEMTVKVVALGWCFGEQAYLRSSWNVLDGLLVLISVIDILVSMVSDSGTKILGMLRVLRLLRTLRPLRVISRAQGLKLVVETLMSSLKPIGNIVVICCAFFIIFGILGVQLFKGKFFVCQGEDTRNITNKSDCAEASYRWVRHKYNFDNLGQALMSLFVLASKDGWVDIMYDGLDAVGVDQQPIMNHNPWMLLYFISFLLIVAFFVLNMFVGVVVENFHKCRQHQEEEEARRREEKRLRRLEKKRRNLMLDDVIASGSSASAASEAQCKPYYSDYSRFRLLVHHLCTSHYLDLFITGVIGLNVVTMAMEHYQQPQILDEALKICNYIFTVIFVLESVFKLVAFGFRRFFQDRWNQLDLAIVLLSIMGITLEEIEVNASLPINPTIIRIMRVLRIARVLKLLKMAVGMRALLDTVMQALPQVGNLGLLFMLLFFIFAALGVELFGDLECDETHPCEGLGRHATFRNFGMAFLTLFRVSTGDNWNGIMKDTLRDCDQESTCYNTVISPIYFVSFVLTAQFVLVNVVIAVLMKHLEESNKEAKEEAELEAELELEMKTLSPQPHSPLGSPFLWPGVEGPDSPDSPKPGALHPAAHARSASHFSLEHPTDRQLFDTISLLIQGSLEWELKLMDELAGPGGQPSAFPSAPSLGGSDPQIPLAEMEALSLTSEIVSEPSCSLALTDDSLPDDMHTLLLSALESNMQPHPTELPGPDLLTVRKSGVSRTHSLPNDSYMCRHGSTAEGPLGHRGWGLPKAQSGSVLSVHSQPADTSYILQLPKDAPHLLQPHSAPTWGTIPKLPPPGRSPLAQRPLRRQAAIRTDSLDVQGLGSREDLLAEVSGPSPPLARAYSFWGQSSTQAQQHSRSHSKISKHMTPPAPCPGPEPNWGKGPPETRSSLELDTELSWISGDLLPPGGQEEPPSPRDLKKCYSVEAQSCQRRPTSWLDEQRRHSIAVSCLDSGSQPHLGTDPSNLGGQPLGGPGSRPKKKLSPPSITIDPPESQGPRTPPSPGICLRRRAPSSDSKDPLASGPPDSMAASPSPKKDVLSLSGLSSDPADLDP
Experiment: Block of α1G T-type channels, patch clamp in HEK cell lines (Example 8)
Format: cell-based
Settings: 100 mV (non-inactivating protocol); read-out: Block of α1G T-type Channels IC50, 100 mV
Method: Standard patch-clamp techniques were employed to identify blockers of T-type currents. Briefly, previously described HEK cell lines stably expressing human α1G subunits were used for all the recordings (passage #: 4-20, 37° C., 5% CO2). To obtain T-type currents, plastic dishes containing semi-confluent cells were positioned on the stage of a ZEISS AXIOVERT S100 microscope after replacing the culture medium with external solution (see below). […]
Please reply with the bare figure in nM and do not write the unit itself.

Problem: Returns the measured IC50 for the input molecule. Input: O=C(CC1c2ccccc2-c2ccccc21)N1CCN(C(c2ccccc2)c2ccccc2)CC1 [Compound P33]
Solution: 404

Problem: Entry to check: N#CC1CN(C(c2ccccc2)c2ccccc2)CCN1C(=O)CC(c1ccccc1)c1ccccc1 (stereo not shown) [Compound P45]
Solution: 10000

Problem: Item: O=C(CC(c1ccccc1)c1ccccc1)N1CCN(C(c2ccccc2)c2cccc(Cl)c2Cl)CC1 (stereo not shown) [Compound P15]
Solution: 63

Problem: Input O=C(O)C1CN(C(c2ccccc2)c2ccccc2)CCN1C(=O)CC1c2ccccc2-c2ccccc21 (stereo not shown) [Compound P38]
Solution: 699

---

target: human α1G subunits (T-type channels) (Homo sapiens); construct: expressed in transfected cells; test: Block of α1G T-type channels, patch clamp in HEK cell lines (Example 8); format: cell-based; settings: 80 mV (inactivation protocol); read-out: Block of α1G T-type Channels IC50, 80 mV
Can you tell me IC50 for the items I'm about to list?
Kindly write the number and append the unit.

Problem: Could you tell me which IC50 is on file for CCOC(=O)C1CN(C(c2ccccc2)c2ccccc2)CCN1C(=O)CC1c2ccccc2-c2ccccc21 (stereo not shown) ?
Solution: 768 nM

Problem: Also check N#CC1CN(C(c2ccccc2)c2ccccc2)CCN1C(=O)CC(c1ccccc1)c1ccccc1 (stereo not shown)
Solution: 833 nM

Problem: Same question, O=C(CC(c1ccccc1)c1ccccc1)N1CCN(C(c2ccccc2)c2ccc(O)cc2)CC1 (stereo not shown) this time
Solution: 835 nM

Problem: Moving on to O=C(CC(c1ccccc1)c1ccccc1)N1CCN([C@@H](c2ccccc2)c2ccc(Cl)cc2)CC1
Solution: 464 nM

---

Biological target: rat α1B+α2b+β1b channels (N-type channels) (Rattus norvegicus, UniProt Q02294)
Construct: expressed in transfected cells
Sequence (Q02294 whole entry): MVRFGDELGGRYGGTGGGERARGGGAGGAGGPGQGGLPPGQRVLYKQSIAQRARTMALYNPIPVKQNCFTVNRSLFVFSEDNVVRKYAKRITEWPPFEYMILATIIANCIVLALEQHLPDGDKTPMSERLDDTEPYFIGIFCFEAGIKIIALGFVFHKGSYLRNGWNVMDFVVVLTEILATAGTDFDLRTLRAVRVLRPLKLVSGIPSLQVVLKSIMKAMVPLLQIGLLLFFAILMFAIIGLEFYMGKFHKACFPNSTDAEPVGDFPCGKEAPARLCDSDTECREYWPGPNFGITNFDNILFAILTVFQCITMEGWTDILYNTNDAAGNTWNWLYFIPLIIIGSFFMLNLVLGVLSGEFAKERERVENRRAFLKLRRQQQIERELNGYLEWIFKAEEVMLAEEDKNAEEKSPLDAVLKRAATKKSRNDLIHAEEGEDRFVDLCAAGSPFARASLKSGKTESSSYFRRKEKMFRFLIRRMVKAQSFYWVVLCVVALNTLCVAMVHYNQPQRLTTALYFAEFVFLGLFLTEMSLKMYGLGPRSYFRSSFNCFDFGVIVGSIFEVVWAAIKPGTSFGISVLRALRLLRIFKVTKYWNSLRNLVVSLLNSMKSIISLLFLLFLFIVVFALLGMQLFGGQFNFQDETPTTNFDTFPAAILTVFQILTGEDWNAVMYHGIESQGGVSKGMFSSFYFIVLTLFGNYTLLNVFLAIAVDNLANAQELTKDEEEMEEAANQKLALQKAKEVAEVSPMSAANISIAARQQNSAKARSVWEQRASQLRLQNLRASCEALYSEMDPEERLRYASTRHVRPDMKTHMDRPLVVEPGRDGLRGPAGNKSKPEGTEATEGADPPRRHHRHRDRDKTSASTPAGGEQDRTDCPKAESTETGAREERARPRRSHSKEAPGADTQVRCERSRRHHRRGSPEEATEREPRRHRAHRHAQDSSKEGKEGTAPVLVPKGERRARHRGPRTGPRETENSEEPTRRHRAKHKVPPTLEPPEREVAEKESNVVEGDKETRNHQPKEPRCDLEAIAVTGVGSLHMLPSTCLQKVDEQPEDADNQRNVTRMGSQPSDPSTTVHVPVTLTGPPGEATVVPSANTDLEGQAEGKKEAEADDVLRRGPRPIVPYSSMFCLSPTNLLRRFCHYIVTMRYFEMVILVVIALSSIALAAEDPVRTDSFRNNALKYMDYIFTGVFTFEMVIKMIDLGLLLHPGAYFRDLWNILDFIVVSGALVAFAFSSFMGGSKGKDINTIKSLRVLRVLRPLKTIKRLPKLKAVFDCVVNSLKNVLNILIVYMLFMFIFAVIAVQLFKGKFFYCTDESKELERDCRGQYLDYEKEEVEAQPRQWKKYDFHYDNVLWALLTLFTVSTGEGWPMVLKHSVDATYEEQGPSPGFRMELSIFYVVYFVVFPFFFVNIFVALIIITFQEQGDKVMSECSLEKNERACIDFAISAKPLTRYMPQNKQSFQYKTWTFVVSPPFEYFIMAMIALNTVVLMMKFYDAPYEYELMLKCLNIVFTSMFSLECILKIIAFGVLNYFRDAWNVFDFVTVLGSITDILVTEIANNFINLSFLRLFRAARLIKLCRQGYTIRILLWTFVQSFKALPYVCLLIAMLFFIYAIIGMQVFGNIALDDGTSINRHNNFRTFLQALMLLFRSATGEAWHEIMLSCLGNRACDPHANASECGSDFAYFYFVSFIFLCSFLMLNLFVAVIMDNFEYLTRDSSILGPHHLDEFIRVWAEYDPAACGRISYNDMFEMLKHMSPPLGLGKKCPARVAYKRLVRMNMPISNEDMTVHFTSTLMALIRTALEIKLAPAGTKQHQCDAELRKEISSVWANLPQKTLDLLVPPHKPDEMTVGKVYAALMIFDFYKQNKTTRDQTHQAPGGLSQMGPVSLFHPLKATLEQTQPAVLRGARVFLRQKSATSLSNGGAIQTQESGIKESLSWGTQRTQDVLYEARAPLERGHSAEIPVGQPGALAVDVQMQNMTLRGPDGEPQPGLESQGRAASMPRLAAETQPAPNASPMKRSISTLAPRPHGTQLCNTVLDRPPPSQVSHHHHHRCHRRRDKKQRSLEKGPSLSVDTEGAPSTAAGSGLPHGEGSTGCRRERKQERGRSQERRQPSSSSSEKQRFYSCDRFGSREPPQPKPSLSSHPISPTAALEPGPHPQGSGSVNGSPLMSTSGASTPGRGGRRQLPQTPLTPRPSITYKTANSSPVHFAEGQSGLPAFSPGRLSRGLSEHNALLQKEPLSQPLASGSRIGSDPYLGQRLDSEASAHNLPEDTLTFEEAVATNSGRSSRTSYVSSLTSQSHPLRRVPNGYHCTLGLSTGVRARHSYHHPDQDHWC
Assay: Block of α1B N-type channels, whole cell patch recordings (Example 6)
Format: cell-based
Details: 0.2 Hz; HEK 293, 5 mM barium as charge carrier; read-out: Block of α1B N-type Channels IC50, 0.2 Hz
Description: Antagonist activity was measured using whole cell patch recordings on human embryonic kidney cells either stably or transiently expressing rat α1B+α2b+β1b channels (N-type channels) with 5 mM barium as a charge carrier. For transient expression, host cells, such as human embryonic kidney cells, HEK 293 (ATCC# CRL 1573) were grown in standard DMEM medium supplemented with 2 mM glutamine and 10% fetal bovine serum. […]
Answer each item with its documented IC50.
Numeric only. Scale: nM

Problem: Given the compound O=C(CC(c1ccccc1)c1ccccc1)N1CCN(C2c3ccccc3S(=O)(=O)c3ccccc32)CC1 [Compound P27] , what is its reported IC50?
Solution: 552

Problem: How about this compound: Cc1ccc(C(c2ccccc2)N2CCN(C(=O)CC(c3ccccc3)c3ccccc3)CC2)cc1 (stereo not shown) [Compound P23]
Solution: 310

Problem: Check Cc1ccc(C(c2ccccc2)N2CCN(C(=O)CC(c3ccccc3)c3ccccc3)CC2)c(C)c1 (stereo not shown) [Compound P18] too.
Solution: 237

Problem: Also CC(C)(C)c1ccc(C(c2ccccc2)N2CCN(C(=O)CC(c3ccccc3)c3ccccc3)CC2)cc1 (stereo not shown) [Compound P11] , if possible.
Solution: 190

Problem: Please give the result for O=C(CC(c1ccccc1)c1ccccc1)N1CCN(C(c2ccccc2)c2ccccc2)C(=O)C1 [Compound P34] too.
Solution: 680

Problem: One more compound: COc1cc(C(c2ccccc2)N2CCN(C(=O)CC(c3ccccc3)c3ccccc3)CC2)cc(OC)c1O (stereo not shown) [Compound P21]
Solution: 252

Data provenance: patent US20040259866A1
